The entries below come with measured protein stability index values attached.
B1: EMD (parent)
chain: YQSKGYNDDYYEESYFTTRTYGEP

- Variants of: B1
- Assay Overview: protein stability index of a GFP-peptide fusion (GPS, HEK-293T) (PSI 1-6); higher = more stable;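 further: lentivirally expressed fusions sorted by FACS into six bins by GFP to DsRed ratio, PSI derived from sequencing read proportions per bin multiplied by bin number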
- Condition Notes: c terminus: a fixed tail appended
Experimental Readout: protein stability index

- Variant Id: "T20L"
  Experimental Readout: "protein stability index"
  Reported Measurement: 2.4
- Variant Id: "Y15D"
  Experimental Readout: "protein stability index"
  Reported Measurement: 3.64
- Variant Id: "N7D"
  Experimental Readout: "protein stability index"
  Reported Measurement: 2.62
- Variant Id: "Y11A"
  Experimental Readout: "protein stability index"
  Reported Measurement: 2.97
- Variant Id: "S3C"
  Experimental Readout: "protein stability index"
  Reported Measurement: 1.95
- Variant Id: "Y15V"
  Experimental Readout: "protein stability index"
  Reported Measurement: 2.62
- Variant Id: "R19F"
  Experimental Readout: "protein stability index"
  Reported Measurement: 2.11
- Variant Id: "N7W"
  Experimental Readout: "protein stability index"
  Reported Measurement: 3.23
- Variant Id: "Q2E"
  Experimental Readout: "protein stability index"
  Reported Measurement: 3.62
- Variant Id: "T17R"
  Experimental Readout: "protein stability index"
  Reported Measurement: 2.44
- Variant Id: "Y6R"
  Experimental Readout: "protein stability index"
  Reported Measurement: 2.56
- Variant Id: "F16Y"
  Experimental Readout: "protein stability index"
  Reported Measurement: 2.28
- Variant Id: "E23H"
  Experimental Readout: "protein stability index"
  Reported Measurement: 2.19
- Variant Id: "K4T"
  Experimental Readout: "protein stability index"
  Reported Measurement: 2.38
- Variant Id: "Y10D"
  Experimental Readout: "protein stability index"
  Reported Measurement: 2.85
- Variant Id: "E13D"
  Experimental Readout: "protein stability index"
  Reported Measurement: 2.42
- Variant Id: "Y1M"
  Experimental Readout: "protein stability index"
  Reported Measurement: 3.22
- Variant Id: "S14C"
  Experimental Readout: "protein stability index"
  Reported Measurement: 1.77
- Variant Id: "Q2M"
  Experimental Readout: "protein stability index"
  Reported Measurement: 2.36
- Variant Id: "D8S"
  Experimental Readout: "protein stability index"
  Reported Measurement: 1.92
- Variant Id: "Y15I"
  Experimental Readout: "protein stability index"
  Reported Measurement: 2.11
- Variant Id: "T17N"
  Experimental Readout: "protein stability index"
  Reported Measurement: 2.35
- Variant Id: "D8F"
  Experimental Readout: "protein stability index"
  Reported Measurement: 2.13
- Variant Id: "E23C"
  Experimental Readout: "protein stability index"
  Reported Measurement: 2.12
- Variant Id: "K4N"
  Experimental Readout: "protein stability index"
  Reported Measurement: 2.36
- Variant Id: "E13Y"
  Experimental Readout: "protein stability index"
  Reported Measurement: 1.91
- Variant Id: "S3I"
  Experimental Readout: "protein stability index"
  Reported Measurement: 2.14
- Variant Id: "T18P"
  Experimental Readout: "protein stability index"
  Reported Measurement: 1.88
- Variant Id: "R19N"
  Experimental Readout: "protein stability index"
  Reported Measurement: 2.87
- Variant Id: "Y6M"
  Experimental Readout: "protein stability index"
  Reported Measurement: 2.85
- Variant Id: "G22H"
  Experimental Readout: "protein stability index"
  Reported Measurement: 2.13
- Variant Id: "T18Y"
  Experimental Readout: "protein stability index"
  Reported Measurement: 1.76
- Variant Id: "G5N"
  Experimental Readout: "protein stability index"
  Reported Measurement: 2.33
- Variant Id: "G5W"
  Experimental Readout: "protein stability index"
  Reported Measurement: 2.92
- Variant Id: "T18H"
  Experimental Readout: "protein stability index"
  Reported Measurement: 2.17
- Variant Id: "P24E"
  Experimental Readout: "protein stability index"
  Reported Measurement: 2.12
- Variant Id: "D8N"
  Experimental Readout: "protein stability index"
  Reported Measurement: 1.82
- Variant Id: "K4A"
  Experimental Readout: "protein stability index"
  Reported Measurement: 2.36
- Variant Id: "T20H"
  Experimental Readout: "protein stability index"
  Reported Measurement: 2.1
- Variant Id: "D8H"
  Experimental Readout: "protein stability index"
  Reported Measurement: 1.96
- Variant Id: "Y21E"
  Experimental Readout: "protein stability index"
  Reported Measurement: 3.18
- Variant Id: "E12R"
  Experimental Readout: "protein stability index"
  Reported Measurement: 1.73
- Variant Id: "Y11W"
  Experimental Readout: "protein stability index"
  Reported Measurement: 1.87
- Variant Id: "T20K"
  Experimental Readout: "protein stability index"
  Reported Measurement: 2.05
- Variant Id: "E23T"
  Experimental Readout: "protein stability index"
  Reported Measurement: 2.24
- Variant Id: "Y11T"
  Experimental Readout: "protein stability index"
  Reported Measurement: 2.94
- Variant Id: "S3Q"
  Experimental Readout: "protein stability index"
  Reported Measurement: 2.43
- Variant Id: "G22M"
  Experimental Readout: "protein stability index"
  Reported Measurement: 1.96
- Variant Id: "G22P"
  Experimental Readout: "protein stability index"
  Reported Measurement: 2.27
- Variant Id: "K4W"
  Experimental Readout: "protein stability index"
  Reported Measurement: 2.39
- Variant Id: "T17Y"
  Experimental Readout: "protein stability index"
  Reported Measurement: 2.23
- Variant Id: "E23W"
  Experimental Readout: "protein stability index"
  Reported Measurement: 2.35
- Variant Id: "E12P"
  Experimental Readout: "protein stability index"
  Reported Measurement: 2.12
- Variant Id: "D9Q"
  Experimental Readout: "protein stability index"
  Reported Measurement: 1.93
- Variant Id: "G5E"
  Experimental Readout: "protein stability index"
  Reported Measurement: 3.1
- Variant Id: "F16C"
  Experimental Readout: "protein stability index"
  Reported Measurement: 3.12
- Variant Id: "E23F"
  Experimental Readout: "protein stability index"
  Reported Measurement: 1.51
- Variant Id: "Y21Q"
  Experimental Readout: "protein stability index"
  Reported Measurement: 2.53
- Variant Id: "G22S"
  Experimental Readout: "protein stability index"
  Reported Measurement: 2.07
- Variant Id: "Y21K"
  Experimental Readout: "protein stability index"
  Reported Measurement: 2.52
- Variant Id: "F16L"
  Experimental Readout: "protein stability index"
  Reported Measurement: 3.38
- Variant Id: "Y11S"
  Experimental Readout: "protein stability index"
  Reported Measurement: 2.8
- Variant Id: "K4S"
  Experimental Readout: "protein stability index"
  Reported Measurement: 2.3
